# run conditions: basic group
Where a SMILES comes first, the peptide text is derived from it.
Returns one of YES or NO; YES when pKa is >= 7.

Evaluate CCN(C)c1ccccc1 : pKa at minimum 7?
NO

Evaluate Cc1ccc(CON)cc1 : pKa at minimum 7?
NO

Evaluate O=C([O-])C1CCNC1 (centres undefined) : pKa at minimum 7?
YES

Evaluate c1ccc(Oc2ccncc2)cc1 : pKa at minimum 7?
NO

Evaluate Nc1ccc2[nH]c[nH+]c2c1 : pKa at minimum 7?
NO

Evaluate SCCN(Cc1ccccc1)Cc1ccccc1 : pKa at minimum 7?
YES

Evaluate C[Si](C)(C)OC1CN(Cc2ccccc2)C1 : pKa at minimum 7?
YES

Evaluate Cc1nc(C(=O)[O-])cs1 : pKa at minimum 7?
NO

Evaluate O=C(Cc1ccc2ccc3cccnc3c2n1)c1ccccc1 : pKa at minimum 7?
NO

Evaluate NC(=O)CCc1ccncc1 : pKa at minimum 7?
NO

Evaluate CC1CN=C(C(C)(C)C)S1 (centres undefined) : pKa at minimum 7?
NO

Evaluate NC(CC(=O)[O-])C(=O)NC(CC(=O)[O-])C(=O)[O-] (stereo not drawn) (H-Asp-Asp-OH; configuration not given here) : pKa at minimum 7?
YES

Evaluate CN(C)CCSCCN(C)C : pKa at minimum 7?
YES

###

# run conditions: basic group
Returns one of 1.0 or 0.0; 1.0 when pKa is >= 6.

Evaluate CCOC(=O)c1cnc2cc3c(cc2c1OCC)OCO3 : pKa at minimum 6?
0.0

Evaluate CCN(CC)CC(=O)Nc1cc(C)ccc1C : pKa at minimum 6?
1.0

Evaluate c1cncc(-c2ccc[nH]2)c1 : pKa at minimum 6?
0.0

Evaluate C=Cc1ccc(C)nc1 : pKa at minimum 6?
0.0

Evaluate c1ccc(-c2nc3ccccc3s2)cc1 : pKa at minimum 6?
0.0

Evaluate NCc1nnn[n-]1 : pKa at minimum 6?
1.0

Evaluate CCCCCCCCCCCCCN : pKa at minimum 6?
1.0

Evaluate Cc1cnc(C)c(C)n1 : pKa at minimum 6?
0.0

Evaluate C[C@H](N)[C@H](C)N : pKa at minimum 6?
1.0

Evaluate N[C@@H](C(=O)[O-])[C@H](O)C(=O)[O-] : pKa at minimum 6?
1.0

Evaluate CCN1CCC[C@@H]1CNC(=O)c1c(OC)ccc([N+](=O)[O-])c1[O-] : pKa at minimum 6?
1.0

Evaluate Cc1ccc(OC(=O)CCCCN(C)C)cc1 : pKa at minimum 6?
1.0

Evaluate CC(C)CNCC(=O)c1ccc(O)cc1 : pKa at minimum 6?
1.0

Evaluate [SH2+]c1cccc2ncccc12 : pKa at minimum 6?
0.0

###

# run conditions: acidic group
Returns one of true or false; true when pKa is >= 8.

Evaluate NS(=O)(=O)C(F)(F)Cl : pKa at minimum 8?
false

Evaluate CCCC[C@H]([NH3+])C(=O)O : pKa at minimum 8?
false

Evaluate O=C([O-])C1(C(=O)O)CC1 : pKa at minimum 8?
false

Evaluate O=[N+]([O-])c1cc(Cl)ccc1O : pKa at minimum 8?
false

Evaluate O=C(O)c1[nH]c2ccccc2[nH+]1 : pKa at minimum 8?
false

Evaluate Nc1ccc(S(=O)(=O)Nc2ccc(N)nc2)cc1 : pKa at minimum 8?
true

Evaluate Cc1cc(O)ccc1Cl : pKa at minimum 8?
true
